Reference for the values: patent US20240174622A1

# System: LNCaP tumor-transplanted mouse
# assay.explanation: Internal radioactivity distribution using LNCaP tumor-transplanted mouse
# Format: in vivo
# condition.info: 24 h after administration
readout.type: LNCaP Tumor (% ID/g)
The answer is to be given in % ID/g; state only the numeric part.

Q: Which LNCaP Tumor value is on record for O=C([O-])CN(Cc1cccc(C(=O)[O-])n1)C[C@H](Cc1ccc(NC(=O)CCCCCNC(=O)CCC(=O)NCCCC[C@H](NC(=O)N[C@@H](CCC(=O)O)C(=O)O)C(=O)O)cc1)N(CC(=O)[O-])Cc1cccc(C(=O)[O-])n1.[111In+3] [[^111In]In-Octapa-1, reference compound] ?
Result: 2.00

Q: What do we get for O=C([O-])CN1CCN(C(CCC(=O)NCCCC[C@H](NC(=O)N[C@@H](CCC(=O)O)C(=O)O)C(=O)O)C(=O)[O-])CCN(CC(=O)[O-])CCN(C(CCC(=O)N[C@@H](CCCCNC(=O)CCCc2ccc(I)cc2)C(=O)O)C(=O)[O-])CC1.[111In+3] (stereo partly drawn) [[^111In]In-PSMA-DA1] ?
Result: 12.6

Q: Then what about the compound O=C([O-])CN(CCN(CCc1ccc(NC(=O)[C@H](CCCCNC(=O)CCC(=O)NCCCC[C@H](NC(=O)N[C@@H](CCC(=O)O)C(=O)O)C(=O)O)NC(=O)CCCc2ccc(I)cc2)cc1)CCN(CC(=O)[O-])Cc1cccc(C(=O)[O-])n1)Cc1cccc(C(=O)[O-])n1.[111In+3] [[^111In]In-Neunpa-2] ?
Result: 8.61
